system: Mus musculus; test: Mortality rate was measured at a dose of 100 mg/kg; format: functional
MEASURED_ENDPOINT: Mean survival time (days)
Answers are plain numbers, in days.

Below, each entry is followed by its recorded Mean survival time result.
COMPOUND | UNIT_NAME | Mean survival time
O=c1[nH]c(=O)n(C2O[C@H](CBr)[C@@H](O)[C@H]2O)cc1F (stereo partly specified) | days | 14.2
O=c1[nH]c(=O)n(C2O[C@H](CCl)[C@@H](O)[C@H]2O)cc1F (stereo partly specified) | days | 15.6
NC[C@H]1OC(n2cc(F)c(=O)[nH]c2=O)[C@H](O)[C@@H]1O (stereo partly specified) | days | 12.4

State recorded Mean survival time for all listed compounds.
1. O=c1[nH]c(=O)n(C2O[C@H](CF)[C@@H](O)[C@H]2O)cc1F (stereo partly specified)
2. CS(=O)(=O)OC[C@H]1OC(n2cc(F)c(=O)[nH]c2=O)[C@H](O)[C@@H]1O (stereo partly specified)

Reply text:
[14, 13.4]

Inquiry: Can you look up the measured Mean survival time of C[C@H]1O[C@@H](n2cc(F)c(=O)[nH]c2=O)[C@H](O)[C@@H]1O [DOXIFLURIDINE] for me?
Reply text: 11.4
